molecular target: human TLR8 (Homo sapiens (Human), UniProt Q9NR97); test: TLR8 inhibition reporter assay (HEK-Blue SEAP); details: read-out: TLR8 IC50; HEK-Blue cells overexpressing human TLR8, R848 15.9 μM stimulation, SEAP reporter;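 further: SEAP driven by IFN-β minimal promoter carrying NF-κB and AP-1 sites, compounds dosed 0.05 nM to 50 µM for 22 h, inhibition scaled between agonist-plus-DMSO and reference-inhibitor wells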
Sequence (Q9NR97 27-1041): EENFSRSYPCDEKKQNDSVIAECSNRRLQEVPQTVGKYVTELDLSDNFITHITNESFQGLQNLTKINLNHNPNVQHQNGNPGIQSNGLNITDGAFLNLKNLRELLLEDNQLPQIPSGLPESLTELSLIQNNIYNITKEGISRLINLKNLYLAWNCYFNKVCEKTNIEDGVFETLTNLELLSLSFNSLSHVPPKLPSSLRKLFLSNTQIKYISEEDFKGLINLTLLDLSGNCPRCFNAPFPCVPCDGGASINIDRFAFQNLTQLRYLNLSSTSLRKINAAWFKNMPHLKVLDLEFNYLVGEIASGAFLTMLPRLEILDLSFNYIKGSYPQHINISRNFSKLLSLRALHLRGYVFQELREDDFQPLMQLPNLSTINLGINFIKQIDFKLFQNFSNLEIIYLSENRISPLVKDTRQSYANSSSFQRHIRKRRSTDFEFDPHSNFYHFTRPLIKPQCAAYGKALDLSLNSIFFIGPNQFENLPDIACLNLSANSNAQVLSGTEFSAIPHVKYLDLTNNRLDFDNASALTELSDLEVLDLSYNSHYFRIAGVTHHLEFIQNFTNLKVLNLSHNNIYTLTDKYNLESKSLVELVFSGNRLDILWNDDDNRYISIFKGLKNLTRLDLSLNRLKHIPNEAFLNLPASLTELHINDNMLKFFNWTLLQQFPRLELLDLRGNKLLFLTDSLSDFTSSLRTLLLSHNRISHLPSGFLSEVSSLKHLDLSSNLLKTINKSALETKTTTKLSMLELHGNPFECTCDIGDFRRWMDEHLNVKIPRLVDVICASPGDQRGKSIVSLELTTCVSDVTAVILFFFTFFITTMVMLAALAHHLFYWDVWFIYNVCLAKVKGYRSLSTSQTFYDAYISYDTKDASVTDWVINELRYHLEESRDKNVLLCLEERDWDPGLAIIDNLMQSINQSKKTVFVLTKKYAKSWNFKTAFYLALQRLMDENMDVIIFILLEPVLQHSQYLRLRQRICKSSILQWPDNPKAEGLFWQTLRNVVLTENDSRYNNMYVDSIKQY
MEASURED METRIC: IC50 (nM)

[I] Cc1c(-c2[nH]c3ccc(C4CCC(N5CCS(=O)(=O)CC5)CC4)nc3c2C(C)C)cn2ncnc2c1C (stereo not shown) [Example 383]
[II] COCCNC1CCC(c2nc3c(C(C)C)c(-c4cc(OC)c5ncnn5c4)[nH]c3cc2C)CC1 (stereo not shown) [Example 335]
[III] COc1cc(-c2[nH]c3ccc(N4CCN(CCNS(C)(=O)=O)CC4)nc3c2C(C)C)cn2ncnc12 [Example 134]
[IV] COc1cc(-c2[nH]c3ccc(C4CCC(NC(C)C)CC4)nc3c2C(C)C)cn2ncnc12 (stereo not shown) [Example 193]
Ask: Sort the items above by IC50, starting with the smallest value. // format: requested-order list of labels
Result: III, II, IV, I
